The molecules listed here are annotated with their dose at which toxicity was detected in only one experiment.
Test system: mouse peritoneal macrophages
Test: In vitro toxicity assay
Assay type: cell-based
Conditions: mouse, 24 h
Procedure: Thioglycollate-elicited mouse peritoneal macrophages were washed, counted and seeded (2×10^5 to 3×10^5 cells per well in 24-well plates) in triplicate wells in medium containing RPMI-1640, L-glutamine, 10% FBS and antibiotics (penicillin/streptomycin). […] Data are presented as mean±standard deviation. Statistical significance relative to vehicle-treated cells was calculated using a student's t-test, with p-values of less than 0.05 being considered as indicating statistical significance.
State the answer as a number, implicitly in µg/mL.

Sample records with dose at which toxicity was detected in only one experiment:
molecule="CCCCCCCCCCCCCCCCOCC(COP(=O)([O-])OCC[N+](C)(C)C)OCCCCC(=O)OC (stereo not shown) [CI-208]" unit_annotation=µg/mL reported_result=20
molecule="CCCCCCCCCCCCCCCCOCC(COP(=O)([O-])OCC[N+](C)(C)C)OCCCCC(OCC)OCC (stereo not shown) [diEtAc]" unit_annotation=µg/mL reported_result=10
molecule="CCCCCCCCCCCCCCCCOCC(COP(=O)(O)O)OCCCCC(=O)O (stereo not shown) [CI-201-PA]" unit_annotation=µg/mL reported_result=10

Let's switch to this molecule now.
Recorded dose at which toxicity was detected in only one experiment for NCCOP(=O)(O)OCC(COCCCCCCCCCCCCCCCC(=O)O)OCCCCC(=O)O (stereo not shown) [CI-214] , please?
100

====

Entries and their dose at which (significant) toxicity was detected values follow.
System: mouse peritoneal macrophages
Test: In vitro toxicity assay
Format: cell-based
Conditions: mouse, 24 h

Recorded dose at which (significant) toxicity was detected, per entry:
molecule="CCCCCCCCCCCCCCCCOCC(COP(=O)([O-])OCC[N+](C)(C)C)OCCCCC(OCC)OCC (centres unmarked)" reported_result="≥ 20 µg/mL"
molecule="CCCCCCCCCCCCCCCCOCC(COP(=O)(O)O)OCCCCC(=O)O (centres unmarked)" reported_result="≥ 20 µg/mL"
molecule="CCCCCCCCCCCCCCCCOCC(COP(=O)(O)OCCNC(=O)CCCC(=O)O)OCCCCC(=O)O (centres unmarked)" reported_result="≥ 100 µg/mL"

Let us move to another entry and its dose at which (significant) toxicity was detected.
Consider the molecule shown here: CCCCCCCCCCCCCCCCOCC(COP(=O)(O)OCCN)OCCCC(=O)O (centres unmarked) What is its recorded dose at which (significant) toxicity was detected?
≥ 50 µg/mL
